Cited source: paper PMC11070508

Provide the recorded melting point for the entries that follow.

Ask: Specify measured melting point for "Clc1ccc2nc(Cl)nc(NN=Cc3c[nH]c4ccc(Br)cc34)c2c1" .
Reply: < 280 °C

Ask: For the molecule "OCc1ccc(C=NNc2nc(Cl)nc3ccc(Cl)cc23)o1" , report melting point.
Reply: < 280 °C

Ask: Give the value of melting point reported for the following: "Clc1ccc2nc(Cl)nc(NN=Cc3ccnc4ccccc34)c2c1"
Reply: < 280 °C

Ask: Identify the reported melting point for the following entry. "Clc1ccc2nc(Cl)n3c(-c4ccnc5ccccc45)nnc3c2c1"
Reply: < 280 °C

Ask: Return melting point for the following molecule: "OCc1ccc(-c2nnc3c4ccccc4nc(Cl)n23)o1"
Reply: > 280 °C

Ask: Return melting point for the following molecule: "Clc1ccc2nc(Cl)n3c(-c4c[nH]c5ccc(Br)cc45)nnc3c2c1"
Reply: > 280 °C
